- system: UniProt:P0A0K8
- test.method.notes: Gyrase inhibitory assay
- Assay type: biochemical
pIC50: −log10 of the molar value.
measure: pIC50

compound	system	endpoint.result
CCOC(=O)c1nnc(N2CC[C@@H](NC(=O)c3[nH]c(C)c(Cl)c3Cl)[C@@H](OC)C2)o1	UniProt:P0A0K8	5.63
CO[C@H]1CN(c2ccc(/C(C)=N/OCC(=O)O)nn2)CC[C@H]1NC(=O)c1[nH]c(C)c(Cl)c1Cl	UniProt:P0A0K8	6.76
CCOC(=O)c1nnc(N2CC[C@@H](NC(=O)c3[nH]c(C)c(Cl)c3Cl)[C@@H](OC)C2)s1	UniProt:P0A0K8	6.86
CCNC(=O)c1ccc(N2CC[C@@H](NC(=O)c3[nH]c(C)c(Cl)c3Cl)[C@@H](OC)C2)nn1	UniProt:P0A0K8	6.24
COC[C@H](C)NC(=O)c1nc(N2CC[C@@H](NC(=O)c3[nH]c(C)c(Cl)c3Cl)[C@@H](OC)C2)sc1C(=O)O [AZD5099 (6), reference compound]	UniProt:P0A0K8	7.49
COC(=O)c1ccc(N2CC[C@@H](NC(=O)c3[nH]c(C)c(Cl)c3Cl)[C@@H](OC)C2)nc1	UniProt:P0A0K8	5.47
CO[C@H]1CN(c2ccc(C(=O)C(F)(F)F)nn2)CC[C@H]1NC(=O)c1[nH]c(C)c(Cl)c1Cl	UniProt:P0A0K8	7.35
CO[C@H]1CN(c2ccc(Br)nn2)CC[C@H]1NC(=O)c1[nH]c(C)c(Cl)c1Cl	UniProt:P0A0K8	6.89
COC(=O)c1ccc(N2CC[C@@H](NC(=O)c3[nH]c(C)c(Cl)c3Cl)[C@@H](OC)C2)nn1	UniProt:P0A0K8	6.87

[I] CO[C@H]1CN(c2ccc(C(C)=O)nn2)CC[C@H]1NC(=O)c1[nH]c(C)c(Cl)c1Cl
[II] CO/N=C(\C)c1ccc(N2CC[C@@H](NC(=O)c3[nH]c(C)c(Cl)c3Cl)[C@@H](OC)C2)nn1
[III] CO[C@H]1CN(c2ccc(/C(C)=N/OC(C)(C)C(=O)O)nn2)CC[C@H]1NC(=O)c1[nH]c(C)c(Cl)c1Cl
Ranking field: pIC50; order: falling. Please, when replying, give the labels in the order that was requested. III, I, II

* * *

- system: E. coli gyrase (Escherichia coli)
- test.method.notes: Gyrase inhibitory assay
- Format: biochemical
measure: IC50

molecule	IC50
COC(=O)c1ccc(N2CC[C@@H](NC(=O)c3[nH]c(C)c(Cl)c3Cl)[C@@H](OC)C2)nc1	> 10 µM
CO[C@H]1CN(c2ccc(C(=O)N3CCNCC3)nn2)CC[C@H]1NC(=O)c1[nH]c(C)c(Cl)c1Cl	> 10 µM
COC[C@H](C)NC(=O)c1nc(N2CC[C@@H](NC(=O)c3[nH]c(C)c(Cl)c3Cl)[C@@H](OC)C2)sc1C(=O)O [AZD5099 (6), reference compound]	0.76 µM

Using the record for `COC(=O)c1cnc(N2CC[C@@H](NC(=O)c3[nH]c(C)c(Cl)c3Cl)[C@@H](OC)C2)s1` , report its IC50. > 10 µM

Using the record for `CCOC(=O)c1nnc(N2CC[C@@H](NC(=O)c3[nH]c(C)c(Cl)c3Cl)[C@@H](OC)C2)s1` , report its IC50. 6.87 µM

Using the record for `CCOC(=O)c1nnc(N2CC[C@@H](NC(=O)c3[nH]c(C)c(Cl)c3Cl)[C@@H](OC)C2)o1` , report its IC50. > 10 µM

Using the record for `COC(=O)c1cnc(N2CC[C@@H](NC(=O)c3[nH]c(C)c(Cl)c3Cl)[C@@H](OC)C2)cn1` , report its IC50. > 10 µM
